Exercise: for every item that follows, state its recorded IC50.
Tested on: human T cells
Assay: hTcell data, IL-2 (human T cells, IL-2 readout; method not given)
Assay type: cell-based
Conditions: T-cell, compounds of the present invention

Here is how some compounds turned out for IC50.
[
  {
    "substance.smiles": "COc1nc(F)c(N2CCOCC2)c2sc(NC(=O)N3CC[C@@]4(CCCOC4)C3)nc12",
    "target.or.test.system": "human T cells",
    "endpoint.name": "IC50",
    "reported.measurement": "< 10 nM"
  },
  {
    "substance.smiles": "COc1nc(F)c(N2CCOCC2)c2sc(NC(=O)c3ccc(-c4nnn[nH]4)cc3)nc12",
    "target.or.test.system": "human T cells",
    "endpoint.name": "IC50",
    "reported.measurement": "< 10 nM"
  },
  {
    "substance.smiles": "COc1ncc(-c2cccc(N)c2)c2sc(NC(=O)N3CCC4(CCOCC4)C3)nc12",
    "target.or.test.system": "human T cells",
    "endpoint.name": "IC50",
    "reported.measurement": "< 100 nM"
  },
  {
    "substance.smiles": "COc1nc(F)c(-c2ccc(F)cc2)c2sc(NC(=O)N3CCC4(CCOCC4)C3)nc12",
    "target.or.test.system": "human T cells",
    "endpoint.name": "IC50",
    "reported.measurement": "< 10 nM"
  },
  {
    "substance.smiles": "COc1nc(F)c(-c2ccccc2)c2sc(NC(=O)N3CC[C@]4(CCCOC4)C3)nc12",
    "target.or.test.system": "human T cells",
    "endpoint.name": "IC50",
    "reported.measurement": "< 10 nM"
  }
]

Entry COc1nc(F)c(N2CCOCC2)c2sc(NC(=O)N3CC[C@]4(CCOC4)C3)nc12 , IC50 reported as < 100 nM
